Each recorded value in this set is attributed to patent US20260027071A1.

- System: Human dermal fibroblasts (HDF)
- METHOD_NOTES: Collagen protein in conditioned media (Sircol Collagen Assay) of human dermal fibroblasts
- Format: cell-based
- CONDITION_SUMMARY: HDF, FIG. 7b, concentration not given
Returns 1 if the recorded change in collagen production induced by individual treatment is greater than or equal to 30%, and 0 otherwise.

MOLECULE: CCCCCCCCC(CCCCCC)C(=O)OC[C@H](OC(=O)C(CCCCCC)CCCCCCCC)[C@H]1OC(=O)C(OC(=O)C(CCCCCC)CCCCCCCC)=C1OC(=O)C(CCCCCC)CCCCCCCC (some centres unmarked) [ATI, ascorbyl tetraisopalmitate, reference compound]
CATEGORY_LABEL: 0

MOLECULE: CCOC1=C(O)C(=O)O[C@@H]1[C@@H](O)CO [EAA, 3-O-ethyl ascorbic acid, reference compound]
CATEGORY_LABEL: 0

MOLECULE: Cl.NCC(N)=O [glycinamide, Glycinamide HCl]
CATEGORY_LABEL: 1

MOLECULE: O=C1O[C@H]([C@@H](O)CO)C([O-])=C1OP(=O)([O-])[O-].O=C1O[C@H]([C@@H](O)CO)C([O-])=C1OP(=O)([O-])[O-].[Mg+2].[Mg+2].[Mg+2] [MAP, Magnesium ascorbyl phosphate, reference compound]
CATEGORY_LABEL: 0

Okay, now this molecule:
Problem: hey, is change in collagen production induced by individual treatment for this one >= 30%? O=C1O[C@H]([C@@H](O)CO)C(O)=C1O[C@H]1O[C@H](CO)[C@@H](O)[C@H](O)[C@H]1O [AG, ascorbyl 2-O-glucoside, reference compound]
Result: 0
